Type: in vitro ADME
Settings: 1 h, 1 µM
parameter: Mouse blood plasma stability, intact radiopeptide (%)

molecule	result-value
Cc1ccc(CCCC(=O)NCCOCCOCCOCCC(=O)NCCCC[C@H](NC(=O)CN2CCN(CC(=O)O)CCN(CC(=O)O)CCN(CC(=O)O)CC2)C(=O)N[C@@H](CC(=O)O)C(=O)N[C@@H](CC2CCCCC2)C(=O)N[C@@H](Cc2ccccc2)C(=O)N[C@H](CO)C(=O)N[C@H](CCCNC(=N)N)C(=O)N[C@@H](Cc2ccc(O)cc2)C(=O)N[C@@H](CC(C)C)C(=O)N[C@@H](Cc2c[nH]c3ccccc23)C(=O)N[C@@H](CO)C(N)=O)cc1 [[^177Lu]Lu-uPAR-15, metal not drawn]	100

Values compiled from paper PMC12920294.
